Item-by-item account of apparent KD of MS2 coat protein
- Test system: MS2 coat protein
- experiment: apparent KD of MS2 coat protein; designed switch direction (-1 OFF switch, 1 ON switch): -1; higher = weaker reporter binding
- recorded-conditions: input ligand: FMN 200 uM
# number then unit; no other words

Quick check: apparent KD of MS2 coat protein of GCUUGUGGGCAAGGAUAUCCUGCGCUGUUCUGGUUCGUGUCUGUCACAUGAGGAUCACCCAUGUGGGAGAAGGUGCCUUUGGUG [Design 64] (Eterna round: R96, puzzle: Exclusion NG 2) ?
13.4 nM

Quick check: apparent KD of MS2 coat protein of UUAGCUCAAGUCAGGAUAUUAGAGGCUUGCCUAAAUAAGAAGGGACAUGAGGAUCACCCAUGUCUAUGCAUGUA [BmEX4 A.16] (Eterna round: R97, puzzle: Brourd's mod of Exclusion 4) ?
21.5 nM

Quick check: apparent KD of MS2 coat protein of AAAGACCUGGAGGAUAUCAGACACACCAGCGUCUGAGAAGGCCAGACAUGAGGAUCACCCAUGUAGGGUUCUCC [EX6 B.22] (Eterna round: R97, puzzle: Exclusion 6) ?
104 nM

Quick check: apparent KD of MS2 coat protein of GUUGACUGAUGAGGAUAUUCAUAAGAAUGGGCCUUGGUUUUACAUGAGGAUCACCCAUGUUGACAGAAGAAGGCAUCAGUCUGA [Eternabot solution 28] (Eterna round: R96, puzzle: Exclusion NG 2) ?
659 nM

Quick check: apparent KD of MS2 coat protein of GGUGAAGCAGGAUAUGUAUCGAUAUACAUGAGGAUCACCCAUGUCAUGUACAAAUUGCAUAUAGAAGGGCUUCACC [Exclusion 5 (FMN-MS2 slide v.4)] (Eterna round: R97, puzzle: Exclusion 5) ?
168 nM
